# TARGET_OR_TEST_SYSTEM: Orexin/Hypocretin receptor type 1 (Homo sapiens) (UniProt O43613)
# Sequence (O43613 whole entry, looked up): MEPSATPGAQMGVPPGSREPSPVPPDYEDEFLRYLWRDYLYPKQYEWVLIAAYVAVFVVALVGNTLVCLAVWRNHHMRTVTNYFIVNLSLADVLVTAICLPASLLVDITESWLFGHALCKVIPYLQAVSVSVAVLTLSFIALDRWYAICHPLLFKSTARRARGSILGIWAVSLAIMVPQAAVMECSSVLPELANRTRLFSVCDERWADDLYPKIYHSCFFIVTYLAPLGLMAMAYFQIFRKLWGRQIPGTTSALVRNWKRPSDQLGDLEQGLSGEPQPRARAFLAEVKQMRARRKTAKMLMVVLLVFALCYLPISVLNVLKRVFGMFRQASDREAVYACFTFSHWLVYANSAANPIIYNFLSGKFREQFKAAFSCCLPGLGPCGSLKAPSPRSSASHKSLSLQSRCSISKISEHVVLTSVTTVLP
# EXPERIMENT_NOTES: antagonists of human orexin 1 receptor (OX1R) (AID 485270);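 further: 0% = agonist challenge alone and 100% = reference antagonist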
# EXPERIMENTAL_CONDITIONS: OX1R-expressing cells, FRET antagonist read-out; at 6.6 µM; hits give high values
Hit rate of the full screen: of about 330,000 compounds, about 5,800 (1.8%) were called active. Only a selection was taken, and actives are over-represented in it overall.
Form field: inhibition (one value per entry).
Could you give me the number in %? Just the number is fine.

Q: What does the record list as inhibition for `CCN(C[C@H]1N[C@@](CC)(C(=O)OC)[C@H]2C(=O)N(Cc3ccccc3)C(=O)[C@@H]12)S(=O)(=O)c1ccc(C(F)(F)F)cc1` ?
Result: 5.19

Q: What does the record list as inhibition for `CC(C)(C)OC(=O)CNC(=O)c1[nH]cnc1C(=O)N[C@@H](CCCCN)C(=O)OC(C)(C)C` ?
Result: 10.9

Q: What does the record list as inhibition for CCN(C(=O)CSc1nnnn1-c1ccc(OC)cc1)C1CCS(=O)(=O)C1 (configuration not stated) ?
Result: 8.67

Q: What does the record list as inhibition for `O=[N+]([O-])c1ccccc1Nc1ccc(O)cc1` ?
Result: 50.7

Q: What does the record list as inhibition for `CCOC(=O)C1CCN(CC(=O)Nc2ccc(OC)c(S(=O)(=O)N3CCCCC3)c2)CC1` ?
Result: 7.12

Q: What does the record list as inhibition for `CCn1ccnc1CN(C)C(=O)c1cc(COc2ccc(Cl)cc2OC)on1` ?
Result: 16.5

Q: What does the record list as inhibition for `COc1ccc(S(=O)(=O)N(C)C[C@@H]2Oc3ccc(NC(=O)Nc4c(C)noc4C)cc3C(=O)N([C@H](C)CO)C[C@@H]2C)cc1` ?
Result: 5.98

====

# TARGET_OR_TEST_SYSTEM: Orexin/Hypocretin receptor type 1 (Homo sapiens)
# EXPERIMENT_NOTES: antagonists of human orexin 1 receptor (OX1R) (AID 485270);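 further: 0% = agonist challenge alone and 100% = reference antagonist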
# EXPERIMENTAL_CONDITIONS: OX1R-expressing cells, FRET antagonist read-out; at 6.6 µM
In all, about 330,000 compounds went through this assay and about 5,800 (1.8%) were called active. Rule as the data show it: active = inhibition mostly above about 38% (no sharp cut-off); inactive = mostly below about 40%. Shown is part of a subset that was picked to be rich in actives.
Select the matching outcome among Yes = active, No = inactive

For orientation, consider the following solved cases.
Q: Record lookup: outcome of this test for `C=CC[C@H](CC(=O)N(CCO)Cc1ccccc1)C(=O)N[C@@H](COC(=O)[C@@H](CC=C)Cc1ccc(F)cc1)Cc1ccccc1` ?
Result: No

Q: Record lookup: outcome of this test for CCC(=O)N(C)C(c1ccccc1Cl)c1nnnn1-c1c(C)cccc1C (centres undefined) ?
Result: Yes

Q: Record lookup: outcome of this test for `COC(=O)c1sccc1NS(=O)(=O)c1ccc(F)cc1F` ?
Result: No

// next entry
Q: Record lookup: outcome of this test for `COc1ccc(CN(Cc2ccc(OC)cc2)C(=O)c2cccs2)cc1` ?
Result: No

====

Form field: inhibition (one value per entry).
# TARGET_OR_TEST_SYSTEM: Orexin/Hypocretin receptor type 1 (Homo sapiens) (UniProt O43613)
# EXPERIMENT_NOTES: antagonists of human orexin 1 receptor (OX1R) (AID 485270);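 further: 0% = agonist challenge alone and 100% = reference antagonist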
# EXPERIMENTAL_CONDITIONS: OX1R-expressing cells, FRET antagonist read-out; at 6.6 µM; hits give high values
Among all 330,000 compounds or so, about 5,800 (1.8%) were called active. Shown is part of a subset that was picked to be rich in actives.
Could you give me the number in %? Just the number is fine.

Example compounds with recorded inhibition:
Q: Observed inhibition on Orexin/Hypocretin receptor type 1 (Homo sapiens) (UniProt O43613) for `Cc1cccc(NC(=O)c2sc3nc(N4CCOCC4)c4c(c3c2N)CCCC4)c1` , please.
Result: 4.35

Q: Observed inhibition on Orexin/Hypocretin receptor type 1 (Homo sapiens) (UniProt O43613) for `Cc1cc(-c2ccc(C)c(S(=O)(=O)NCCCN(Cc3ccccc3)C(C)C)c2)on1` , please.
Result: 22.4

New cases:
Q: Observed inhibition on Orexin/Hypocretin receptor type 1 (Homo sapiens) (UniProt O43613) for `COc1ccc(N(C)C(=O)CCS(=O)(=O)c2cccc3nsnc23)cc1` , please.
Result: 128

Q: Observed inhibition on Orexin/Hypocretin receptor type 1 (Homo sapiens) (UniProt O43613) for C=CC(COCc1ccccc1)N(CC(=O)OC)S(=O)(=O)c1cc(Br)ccc1OC (centres undefined) , please.
Result: 20.4

Q: Observed inhibition on Orexin/Hypocretin receptor type 1 (Homo sapiens) (UniProt O43613) for COc1ccc(CCNC(=O)C(=O)NCC2CCCN2S(=O)(=O)c2cccs2)cc1OC (centres undefined) , please.
Result: 17.3

Q: Observed inhibition on Orexin/Hypocretin receptor type 1 (Homo sapiens) (UniProt O43613) for `CC(=O)N1c2ccccc2N(Cc2ccc([N+](=O)[O-])cc2)C(=O)C1(C)C` , please.
Result: 15.5

Q: Observed inhibition on Orexin/Hypocretin receptor type 1 (Homo sapiens) (UniProt O43613) for `Cc1c(CN2CC[C@@H](N3CCN(c4ccccn4)CC3)[C@H](O)C2)[nH]c2ccc(F)cc12` , please.
Result: -1.02

Q: Observed inhibition on Orexin/Hypocretin receptor type 1 (Homo sapiens) (UniProt O43613) for `Cc1cc(-c2ccc(C)c(S(=O)(=O)Nc3ccc(S(N)(=O)=O)cc3)c2)on1` , please.
Result: 14.9

Q: Observed inhibition on Orexin/Hypocretin receptor type 1 (Homo sapiens) (UniProt O43613) for COc1ccc(CNC(=O)C(NS(=O)(=O)c2cccc3nsnc23)C(C)C)cc1 (centres undefined) , please.
Result: 26.5

Q: Observed inhibition on Orexin/Hypocretin receptor type 1 (Homo sapiens) (UniProt O43613) for `Nc1nc(-c2sc3nc4c(cc3c2N)CCCC4)nc(N2CCOCC2)n1` , please.
Result: 95.8

Q: Observed inhibition on Orexin/Hypocretin receptor type 1 (Homo sapiens) (UniProt O43613) for `C=CCSc1nnc(NC(=O)c2ccc(NC(C)=O)cc2)s1` , please.
Result: 5.19

Q: Observed inhibition on Orexin/Hypocretin receptor type 1 (Homo sapiens) (UniProt O43613) for `CCC(=O)N1CCc2cc(S(=O)(=O)CCC(=O)N3CCN(c4ccccc4F)CC3)ccc21` , please.
Result: 5.14

Q: Observed inhibition on Orexin/Hypocretin receptor type 1 (Homo sapiens) (UniProt O43613) for `CCOc1ccc(OCC)c(NC(=O)CN(C)S(=O)(=O)c2cccc3nsnc23)c1` , please.
Result: 41.7

Q: Observed inhibition on Orexin/Hypocretin receptor type 1 (Homo sapiens) (UniProt O43613) for `COc1cc(C(=S)N2CCOCC2)cc(OC)c1OC(=O)c1cc([N+](=O)[O-])cc([N+](=O)[O-])c1` , please.
Result: 66.5

====

# TARGET_OR_TEST_SYSTEM: Orexin/Hypocretin receptor type 1 (Homo sapiens) (UniProt O43613)
# EXPERIMENT_NOTES: antagonists of human orexin 1 receptor (OX1R) (AID 485270);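 further: 0% = agonist challenge alone and 100% = reference antagonist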
# EXPERIMENTAL_CONDITIONS: OX1R-expressing cells, FRET antagonist read-out; at 6.6 µM; hits give high values
Out of some 330,000 compounds screened, about 5,800 (1.8%) were called active. The sample holds actives, similar compounds and a random draw of the others, so the mix is not that of the screen.
Form field: inhibition (one value per entry).
Could you give me the number in %? Just the number is fine.

Example compounds with recorded inhibition:
Q: What does the record list as inhibition for `COc1ccc(CNC(=O)c2c(C)cc(=O)oc2C)cc1OC` ?
Result: 8.87

Q: What does the record list as inhibition for `COc1cccc(NC(=O)CN(C)C(=O)c2ccccc2CCc2ccccc2)c1` ?
Result: 67.5

Q: What does the record list as inhibition for `Cc1ccc(NC(=O)c2cc3ccccc3o2)cc1` ?
Result: 4.2

Now turn to the next compound.
Q: What does the record list as inhibition for Cc1cc(C(=O)NC2CCCc3c2cnn3-c2cccc(C)c2C)c(C)o1 (centres undefined) ?
Result: 81

====

# TARGET_OR_TEST_SYSTEM: Orexin/Hypocretin receptor type 1 (Homo sapiens)
# EXPERIMENT_NOTES: antagonists of human orexin 1 receptor (OX1R) (AID 485270);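 further: 0% = agonist challenge alone and 100% = reference antagonist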
# EXPERIMENTAL_CONDITIONS: OX1R-expressing cells, FRET antagonist read-out; at 6.6 µM; hits give high values
Hit rate of the full screen: of about 330,000 compounds, about 5,800 (1.8%) were called active. This is one part of a sample in which actives are shown more often than they occur.
Form field: inhibition (one value per entry).
Could you give me the number in %? Just the number is fine.

Q: What does the record list as inhibition for `COc1ccccc1N(CC(=O)N1CCCCC1)S(=O)(=O)c1ccccc1` ?
Result: 13.9

Q: What does the record list as inhibition for `O=[N+]([O-])c1ccc(NCCCO)c(C(F)(F)F)c1` ?
Result: 28.9

Q: What does the record list as inhibition for `CC(C)(C)n1ncc2c(=O)n(Cc3c(Cl)cccc3Br)cnc21` ?
Result: 11.1

Q: What does the record list as inhibition for `C=CC1=C(C(=O)O)N2C(=O)[C@@H](NC(=O)/C(=N\OCC(=O)O)c3csc(N)n3)[C@H]2SC1` ?
Result: 9.76

Q: What does the record list as inhibition for `COc1ccc(NC(=O)Nc2cccc3cccnc23)cc1` ?
Result: 40

Q: What does the record list as inhibition for `CC[C@]12c3[nH]c4ccc(Cl)cc4c3CCN1C(=O)[C@@H](CC(=O)NCCCOC)C[C@@H]2C(=O)N1CCN(C(=O)c2ccco2)CC1` ?
Result: 1.35

Q: What does the record list as inhibition for CC1CCCCC1NC(=O)CCS(=O)(=O)c1cccc2nonc12 (stereo unspecified) ?
Result: 57.3

Q: What does the record list as inhibition for `O=C(CCS(=O)(=O)c1cccc2nonc12)NCCc1ccccc1Cl` ?
Result: 40.5

New cases:
Q: What does the record list as inhibition for CCOC(=O)C1C(c2ccc(Cl)cc2)NC(=S)NC1(O)C(F)(F)F (stereo unspecified) ?
Result: 2.06
